tested on: PADI4, Q9UM07
Sequence (Q9UM07 whole entry): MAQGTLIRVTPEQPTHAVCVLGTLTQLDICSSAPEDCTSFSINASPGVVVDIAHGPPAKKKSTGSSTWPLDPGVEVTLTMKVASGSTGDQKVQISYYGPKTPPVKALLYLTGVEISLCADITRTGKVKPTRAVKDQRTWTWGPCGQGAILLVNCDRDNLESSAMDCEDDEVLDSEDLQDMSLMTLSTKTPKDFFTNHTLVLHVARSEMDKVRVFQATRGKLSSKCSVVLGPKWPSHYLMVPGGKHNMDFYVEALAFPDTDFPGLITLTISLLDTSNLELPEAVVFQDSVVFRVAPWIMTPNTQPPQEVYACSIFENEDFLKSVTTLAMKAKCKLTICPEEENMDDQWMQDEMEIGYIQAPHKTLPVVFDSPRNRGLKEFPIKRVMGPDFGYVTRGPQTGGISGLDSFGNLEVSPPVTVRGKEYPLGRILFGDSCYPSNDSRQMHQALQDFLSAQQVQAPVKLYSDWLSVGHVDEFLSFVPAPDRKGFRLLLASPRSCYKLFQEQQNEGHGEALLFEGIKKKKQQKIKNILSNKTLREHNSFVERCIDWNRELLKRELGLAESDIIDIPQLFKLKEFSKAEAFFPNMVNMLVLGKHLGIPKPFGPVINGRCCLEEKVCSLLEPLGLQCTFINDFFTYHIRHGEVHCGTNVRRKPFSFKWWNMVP
test: log2 enrichment score relative to parent PADI4_3 peptide (binding to PADI4); higher = tighter binding than parent
setup conditions: CaCl2: 10 mM
Listed here: items and their measured log2 enrichment score.
measured endpoint: log2 enrichment score

binder | measured endpoint | experimental result
YRDHEYRHPKYCG [PADI4_3_H5E H5E] | log2 enrichment score | -4.25
YRDHHYRHPQYCG [PADI4_3_K10Q K10Q] | log2 enrichment score | -1.09
YRDHHYRHPPYCG [PADI4_3_K10P K10P] | log2 enrichment score | -3.67
YRDHHYRYPKYCG [PADI4_3_H8Y H8Y] | log2 enrichment score | -3.56
YRDHHYRVPKYCG [PADI4_3_H8V H8V] | log2 enrichment score | -3.3
YRDHHIRHPKYCG [PADI4_3_Y6I Y6I] | log2 enrichment score | -2.71
YRWHHYRHPKYCG [PADI4_3_D3W D3W] | log2 enrichment score | -3.57
